- System: Pseudomonas fluorescens HPPD polypeptide (wild-type and mutants)
- ASSAY_OVERVIEW: Coupled HPPD activity assay: turnover and residual turnover in crude HPPD polypeptide extracts with and without Cmpd. 1
- Format: biochemical
- PROTOCOL_CONDITIONS: 100 μM Cmpd. 1, normalised to turnover without inhibitor
MEASURED_QUANTITY: Residual turnover [%] (%)
Kindly answer with a numeric value in %, unit omitted.

Task: Value lookup for Residual turnover [%]; key = SEQ ID NO:52 (protein, mutant HPPD polypeptide) MADLYENPMGLMGFEFIEFASPTPGTLEPIFEIMGFTKVATHRSKNVHLYRQGEINLILNNEPNSIASYFAAEHGPSVCGMAFRVKDSQKAYNRALELGAQPIHIDTGPMELNLPAIKGIGGAPLYLIDRFGEGSSIYDIDFVYLEGVERNPVGAGLKVIDHLTHNVYRGRMVYWANFYEKLFNFREARYFDIKGEYTGLTSKAMSAPDGMIRIALNEESSKGAGQIEEFLMQFNGEGIQHVAFLTDDLVKTWDALKKIGMRFMTAPGDEYYEMLEGRLPDHGEPVDQLQARGILLDGSSVEGDKRLLLQIFSERLMGPVFFEFIQRKGDDGFGPHSFKVLFESIERDQVRRGVLTAD
Result: 61

Task: Same thing, different molecule: SEQ ID NO:65 (protein, mutant HPPD polypeptide) MADLYENPMGLMGFEFIEFASPTPGTLEPIFEIMGFTKVATHRSKNVHLYRQGEINLILNNEPNSIASYFAAEHGPSVCGMAFRVKDSQKAYNRALELGAQPIHIDTGPMELNLPAIKGIGGAPLYLIDRFGEGSSIYDIDFVYLEGVERNPVGAGLKVIDHLTHNVYRGRMVYWANFYEKLFNFREARYFDIKGEYTGLTSKAMSAPDGMIRIPLNEESSKGAGQIEEFLMQFNGEGIQHVAFLTDDLVKTWDALKKIGMRFLTAPGDEYYEMLEGRLPDHGEPVDQLQARGILLDGSSVEGDKRLLLQIFSEKLMGPVFFEFIQRKGDDGFGPDSFKVLFEQIERDQVRRGVLTAD
Result: 60

Task: Same thing, different molecule: SEQ ID NO:61 (protein, mutant HPPD polypeptide) MADLYENPMGLMGFEFIEFASPTPGTLEPIFEIMGFTKVATHRSKNVHLYRQGEINLILNNEPNSIASYFAAEHGPSVCGMAFRVKDSQKAYNRALELGAQPIHIDTGPMELNLPAIKGIGGAPLYLIDRFGEGSSIYDIDFVYLEGVERNPVGAGLKVIDHLTHNVYRGRMVYWANFYEKLFNFREARYFDIKGEYTGLTSKAMSAPDGMIKIPLNEESSKGAGQIEEFLMQFNGEGIQHVAFLTDDLVKTWDALKKIGMRFLTAPGDEYYEMLEGRLPDHGEPVDQLQARGILLDGSSVEGDKRLLLQIFSEQLMGPVFFEFIQRKGDDGFGPDSFKVLFEQMERDQVRRGVLTAD
Result: 56

Task: Same thing, different molecule: SEQ ID NO:4 (protein, mutant HPPD polypeptide) MADLYENPMGLMGFEFIEFASPTPGTLEPIFEIMGFTKVATHRSKNVHLYRQGEINLILNNEPNSIASYFAAEHGPSVCGMAFRVKDSQKAYNRALELGAQPIHIDTGPMELNLPAIKGIGGAPLYLIDRFGEGSSIYDIDFVYLEGVERNPVGAGLKVIDHLTHNVYRGRMVYWANFYEKLFNFREARYFDIKGEYTGLTSKAMSAPDGMIRIPLNEESSKGAGQIEEFLMQFNGEGIQHVAFLTDDLVKTWDALKKIGMRFMTAPGDEYYEMLEGRLPDHGEPVDQLQARGILLDGSSVEGDKRLLLQIFSEQLMGPVFFEFIQRKGDDGFGPDSFKVLFESIERDQVRRGVLTAD
Result: 50
